- Experimental System: Muscarinic acetylcholine receptor M3 (Homo sapiens, UniProt P20309)
- Sequence (P20309 whole entry): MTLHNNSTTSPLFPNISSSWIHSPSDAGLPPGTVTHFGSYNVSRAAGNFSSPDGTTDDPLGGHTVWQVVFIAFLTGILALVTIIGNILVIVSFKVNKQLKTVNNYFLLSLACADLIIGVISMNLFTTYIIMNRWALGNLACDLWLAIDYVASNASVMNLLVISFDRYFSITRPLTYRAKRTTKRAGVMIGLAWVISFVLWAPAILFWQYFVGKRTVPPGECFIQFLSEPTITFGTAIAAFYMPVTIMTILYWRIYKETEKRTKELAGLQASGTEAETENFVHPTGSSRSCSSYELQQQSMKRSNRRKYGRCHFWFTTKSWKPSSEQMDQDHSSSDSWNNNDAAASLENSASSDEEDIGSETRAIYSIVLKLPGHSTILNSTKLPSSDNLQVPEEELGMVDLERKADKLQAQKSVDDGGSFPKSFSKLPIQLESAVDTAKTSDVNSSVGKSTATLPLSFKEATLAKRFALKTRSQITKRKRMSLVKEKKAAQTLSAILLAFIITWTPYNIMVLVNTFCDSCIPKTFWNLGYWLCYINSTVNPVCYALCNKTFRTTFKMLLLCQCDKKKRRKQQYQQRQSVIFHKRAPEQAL
Measured Metric: pKi
By convention, pKi is the negative base-10 log of a molar concentration.

# input Can you share its pKi? I mean this molecule: `COc1nsnc1OCCOCCOCCOCCOCCOc1nsnc1C1=CCCN(C)C1`
# output 5.80

* * *

EC50, Muscarinic acetylcholine receptor M1 (Homo sapiens, UniProt P11229, Q185E): measured values
Answer with a number only, understood to be in nM.

CN1CCC=C(c2nsnc2OCCOCCOCCOCCOc2nsnc2C2=CCCN(C)C2)C1	50.1

// below: EC50 requested for another compound
# input Form: Entry = `COc1nsnc1OCCOCCOCCOCCOc1nsnc1C1=CCCN(C)C1` | System = Muscarinic acetylcholine receptor M1 (Homo sapiens, UniProt P11229, Q185E) | EC50 = ____
# output 251

* * *

- Experimental System: Muscarinic acetylcholine receptor M1 (Homo sapiens, UniProt P11229, T192A)
- Sequence (P11229 whole entry T192A): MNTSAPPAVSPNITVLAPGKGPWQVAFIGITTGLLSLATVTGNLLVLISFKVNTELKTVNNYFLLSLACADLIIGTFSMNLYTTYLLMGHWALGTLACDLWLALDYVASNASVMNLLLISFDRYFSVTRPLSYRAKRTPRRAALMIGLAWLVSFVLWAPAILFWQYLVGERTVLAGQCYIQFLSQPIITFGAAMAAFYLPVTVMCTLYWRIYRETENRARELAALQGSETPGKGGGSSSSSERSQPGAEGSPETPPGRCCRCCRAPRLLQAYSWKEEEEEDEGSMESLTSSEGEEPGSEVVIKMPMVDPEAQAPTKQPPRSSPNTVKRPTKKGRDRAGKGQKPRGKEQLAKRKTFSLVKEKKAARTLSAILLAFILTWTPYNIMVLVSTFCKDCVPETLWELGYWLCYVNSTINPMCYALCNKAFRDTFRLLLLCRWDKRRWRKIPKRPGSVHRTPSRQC
- Test Description: Inhibition of [3H](R)-QNB binding to human M1 receptor Thr192Ala mutant expressed in A9 L cells
Measured Metric: Ki
A bare number is not enough; add the unit after it.

# input Can you share its Ki? I mean this compound: `CN1CCC=C(c2nsnc2OCCOCCOCCOCCOc2nsnc2C2=CCCN(C)C2)C1`
# output 100 nM

* * *

pIC50 values for the compounds below.
- Experimental System: Muscarinic acetylcholine receptor M4 (Homo sapiens)
- Sequence (P08173 whole entry): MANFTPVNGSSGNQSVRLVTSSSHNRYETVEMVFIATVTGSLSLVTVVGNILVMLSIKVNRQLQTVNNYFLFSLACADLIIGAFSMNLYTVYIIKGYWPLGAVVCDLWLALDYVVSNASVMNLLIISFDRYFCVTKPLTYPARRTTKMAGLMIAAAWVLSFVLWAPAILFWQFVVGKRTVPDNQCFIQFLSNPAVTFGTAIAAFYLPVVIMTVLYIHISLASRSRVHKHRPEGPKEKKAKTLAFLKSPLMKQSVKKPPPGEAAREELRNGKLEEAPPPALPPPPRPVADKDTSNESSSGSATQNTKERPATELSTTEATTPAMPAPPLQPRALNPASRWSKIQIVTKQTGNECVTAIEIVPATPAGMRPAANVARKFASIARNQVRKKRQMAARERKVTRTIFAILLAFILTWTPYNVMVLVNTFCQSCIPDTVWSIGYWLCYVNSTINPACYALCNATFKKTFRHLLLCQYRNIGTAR
- Test Description: Activity at human M4 receptor assessed as inhibition of forskolin-stimulated cAMP accumulation
By convention, pIC50 is the negative base-10 log of a molar concentration.

Solved entries (count: 5):
COc1nsc(OCCCOCCCOCCCOc2nsnc2C2=CCCN(C)C2)n1	5.20
COc1nsnc1OCCOCCOc1nsnc1C1=CCCN(C)C1	5.10
COc1nsnc1OCCOCCOCCOCCOc1nsnc1C1=CCCN(C)C1	7.90
COc1nsnc1OCCOCCOCCOCCOCCOc1nsnc1C1=CCCN(C)C1	6.40
COc1nsnc1OCCOCCOCCOc1nsnc1C1=CCCN(C)C1	5.10

// below: pIC50 requested for another compound
# input Can you share its pIC50? I mean this compound: `CN1CCC=C(c2nsnc2OCCOCCOCCOCCO)C1`
# output 4.60

* * *

Protein target, amino acids: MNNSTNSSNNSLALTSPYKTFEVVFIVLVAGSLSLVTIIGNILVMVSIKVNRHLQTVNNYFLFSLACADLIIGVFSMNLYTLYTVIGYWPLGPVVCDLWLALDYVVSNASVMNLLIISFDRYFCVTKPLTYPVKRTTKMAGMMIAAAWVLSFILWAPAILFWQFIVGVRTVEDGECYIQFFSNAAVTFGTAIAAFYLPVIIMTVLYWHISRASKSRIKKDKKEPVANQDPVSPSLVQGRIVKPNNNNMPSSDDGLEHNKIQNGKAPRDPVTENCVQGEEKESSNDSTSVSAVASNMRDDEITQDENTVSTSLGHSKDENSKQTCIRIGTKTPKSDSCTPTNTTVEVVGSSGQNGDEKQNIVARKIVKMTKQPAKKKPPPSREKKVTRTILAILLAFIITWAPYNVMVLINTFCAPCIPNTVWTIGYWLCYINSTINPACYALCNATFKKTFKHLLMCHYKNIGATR
Measured Metric: pKi
By convention, pKi is the negative base-10 log of a molar concentration.

# input Can you share its pKi? I mean this compound: `COc1nsnc1OCCOCCOCCOc1nsnc1C1=CCCN(C)C1`
# output 7.40
